molecular target: Activated CDC42 kinase 1 (Homo sapiens) (UniProt Q07912); settings: at 1 µM
Sequence (Q07912 whole entry, looked up): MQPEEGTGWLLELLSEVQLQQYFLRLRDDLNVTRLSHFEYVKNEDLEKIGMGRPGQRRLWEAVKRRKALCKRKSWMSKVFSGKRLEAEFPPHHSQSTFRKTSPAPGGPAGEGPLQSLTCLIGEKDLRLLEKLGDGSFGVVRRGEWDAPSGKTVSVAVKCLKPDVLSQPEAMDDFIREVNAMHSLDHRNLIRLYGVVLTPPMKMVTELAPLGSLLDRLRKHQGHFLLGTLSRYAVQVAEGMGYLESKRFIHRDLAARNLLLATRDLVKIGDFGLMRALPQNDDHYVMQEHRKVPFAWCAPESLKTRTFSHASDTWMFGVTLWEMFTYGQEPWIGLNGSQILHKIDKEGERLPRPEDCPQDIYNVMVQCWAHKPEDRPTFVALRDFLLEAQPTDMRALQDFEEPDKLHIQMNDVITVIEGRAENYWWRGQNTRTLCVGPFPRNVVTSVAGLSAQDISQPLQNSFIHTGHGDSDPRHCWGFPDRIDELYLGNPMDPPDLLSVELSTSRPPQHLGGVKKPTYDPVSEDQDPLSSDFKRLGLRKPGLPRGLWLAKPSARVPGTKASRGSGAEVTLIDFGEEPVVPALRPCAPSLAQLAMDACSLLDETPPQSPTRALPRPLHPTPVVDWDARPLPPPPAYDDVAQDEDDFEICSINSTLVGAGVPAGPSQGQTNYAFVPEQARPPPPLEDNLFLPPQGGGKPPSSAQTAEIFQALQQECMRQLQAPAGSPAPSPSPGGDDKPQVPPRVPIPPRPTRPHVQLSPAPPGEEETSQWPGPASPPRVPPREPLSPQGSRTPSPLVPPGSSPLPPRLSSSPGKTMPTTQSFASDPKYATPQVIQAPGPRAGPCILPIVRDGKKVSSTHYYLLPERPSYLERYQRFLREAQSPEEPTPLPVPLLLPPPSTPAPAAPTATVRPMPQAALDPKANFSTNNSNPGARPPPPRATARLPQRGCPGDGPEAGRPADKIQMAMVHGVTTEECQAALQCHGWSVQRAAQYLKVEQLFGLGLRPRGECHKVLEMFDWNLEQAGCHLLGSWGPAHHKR
Description: GSK_PKIS: TNK2 mean inhibition at 1 uM [Nanosyn]
Provide the recorded inhibition for the entries that follow.
Give a bare numeral; the unit % is implied.

[ask] Recorded inhibition of Nc1nccc(-c2c(-c3ccc(F)cc3)ncn2C2CCC(O)CC2)n1 (stereo not given) , please.
[reply] 0.4

[ask] One more molecule: NC(=O)Cc1ccccc1Oc1nccc(-c2c(-c3ccc(F)cc3)ncn2C2CCNCC2)n1
[reply] 2.74

[ask] One more molecule: NS(=O)(=O)c1ccc(N/N=C2\C(=O)Nc3ccc(-c4cnco4)cc32)cc1
[reply] 0.92

[ask] One more molecule: COc1cc(Nc2ncc(-c3ccccc3)o2)cc(OC)c1OC
[reply] 0.48

[ask] One more molecule: CCS(=O)(=O)c1ccc(OC)c(Nc2ncc(-c3cccc(-c4ccccc4F)c3)o2)c1
[reply] 7.85
